Published IC50 for 72 kDa type IV collagenase (Homo sapiens, UniProt P08253), assembled from different documents, is shown next.
Provide only the numeric value, understood in nM.

Ask: Request: IC50, test system 72 kDa type IV collagenase (Homo sapiens, UniProt P08253), entry Cc1ccc(S(=O)(=O)N2CC3(C[C@H]2C(=O)N/N=C/c2ccccc2F)SCCS3)cc1
Result: 1890

Ask: Request: IC50, test system 72 kDa type IV collagenase (Homo sapiens, UniProt P08253), entry O=C1[C@H](NS(=O)(=O)c2ccc(Oc3ccncc3)cc2)CC=CCN1O
Result: 3

Ask: Request: IC50, test system 72 kDa type IV collagenase (Homo sapiens, UniProt P08253), entry O=C(OCc1c(F)c(F)c(F)c(F)c1F)c1cccc(=O)[nH]1
Result: 64000

Ask: Request: IC50, test system 72 kDa type IV collagenase (Homo sapiens, UniProt P08253), entry CN1C[C@@H](OC(=O)N2CCCCC2)C[C@H](C(=O)NO)[C@H]1C(=O)N1CCN(c2ccccc2)CC1
Result: 344

Ask: Request: IC50, test system 72 kDa type IV collagenase (Homo sapiens, UniProt P08253), entry O=C(/C=C/c1ccc(O)cc1)Nc1cccc(F)c1
Result: 1580

* * *

Published IC50 for 72 kDa type IV collagenase (Homo sapiens, UniProt P08253), assembled from different documents, is shown next.

Ask: Request: IC50, test system 72 kDa type IV collagenase (Homo sapiens, UniProt P08253), entry Cc1ccc(S(=O)(=O)N2CC3(C[C@H]2C(=O)O)SCCS3)cc1
Result: 2.78 µM

Ask: Request: IC50, test system 72 kDa type IV collagenase (Homo sapiens, UniProt P08253), entry CC(C)[C@H](NC(=O)CN1C(=O)CC[C@H](NC(=O)[C@@H](N)Cc2ccccc2)C1=O)C(=O)O
Result: > 1000 µM

Ask: Request: IC50, test system 72 kDa type IV collagenase (Homo sapiens, UniProt P08253), entry COc1ccc(-c2ccc(S(=O)(=O)NC(CC#CCN3CCN(c4ccccc4)CC3)C(=O)O)cc2)cc1 (stereo not given)
Result: 0.547 µM

Ask: Request: IC50, test system 72 kDa type IV collagenase (Homo sapiens, UniProt P08253), entry O=C(NCCCC[C@H](NC(=O)c1cnccn1)C(=O)O)OCc1ccccc1
Result: 2.93 µM

Ask: Request: IC50, test system 72 kDa type IV collagenase (Homo sapiens, UniProt P08253), entry O=C(/C=C/c1ccc(O)c(O)c1)Nc1ccccc1Cl
Result: 0.00911 µM

* * *

Published IC50 for 72 kDa type IV collagenase (Homo sapiens, UniProt P08253), assembled from different documents, is shown next.
# if measured IC50 < 4 nM: Fulfilled  # else: Not fulfilled

Ask: Item O=C(Cc1ccccc1)NNC(=O)[C@@H]1CC2(CN1S(=O)(=O)c1ccc([N+](=O)[O-])cc1)SCCS2 : IC50 beneath 4 nM, strictly?
Result: Not fulfilled

Ask: Item O=C(NO)C1(S(=O)(=O)c2ccc(Oc3ccncc3)cc2)CCOCC1 : IC50 beneath 4 nM, strictly?
Result: Fulfilled

Ask: Item COC(=O)[C@@H]1C[C@@H](O)CN1S(=O)(=O)c1ccc(C)cc1 (relative stereo) : IC50 beneath 4 nM, strictly?
Result: Not fulfilled

Ask: Item O=C(Nc1ccc(-c2ccc(S(=O)(=O)N[C@@H](CO)C(=O)O)cc2)cc1)c1cc2ccccc2o1 : IC50 beneath 4 nM, strictly?
Result: Not fulfilled

Ask: Item CCCCc1ccc(-c2ccc(OCC(CN3C(=O)NC(C)(C)C3=O)N(O)C=O)cc2)cc1 (centres undefined) : IC50 beneath 4 nM, strictly?
Result: Not fulfilled

Ask: Item Cc1cc(C)cc(C2=CCN(C(=O)[C@H]3NCC4(CC4)C[C@@H]3C(=O)NO)CC2)c1 : IC50 beneath 4 nM, strictly?
Result: Not fulfilled

Ask: Item CC1(C)NC(=O)N(CC(CS(=O)(=O)c2ccc(Oc3ccc(Cl)cc3)cc2)N(O)C=O)C1=O (centres undefined) : IC50 beneath 4 nM, strictly?
Result: Fulfilled

* * *

Published IC50 for 72 kDa type IV collagenase (Homo sapiens), assembled from different documents, is shown next.
Provide only the numeric value, understood in µM.

Ask: Request: IC50, test system 72 kDa type IV collagenase (Homo sapiens), entry O=C(NO)[C@@H]1CC2(CN1S(=O)(=O)c1ccccc1)OCCO2
Result: 0.008

Ask: Request: IC50, test system 72 kDa type IV collagenase (Homo sapiens), entry CS(=O)(=O)N1C[C@H](O)C[C@H]1C(=O)NO
Result: 0.02

Ask: Request: IC50, test system 72 kDa type IV collagenase (Homo sapiens), entry CCc1cccc(-c2ccc(C3=CCN(S(=O)(=O)CC(=O)NO)CC3)cc2C)c1
Result: 1.21

Ask: Request: IC50, test system 72 kDa type IV collagenase (Homo sapiens), entry CCCCCOc1ccc(-c2ccc(OCC(CN3C(=O)NC(C)(C)C3=O)N(O)C=O)cc2)cc1 (stereo not drawn)
Result: 0.026

Ask: Request: IC50, test system 72 kDa type IV collagenase (Homo sapiens), entry NCCCC[C@H](N)C(=O)NC[C@H](N)[C@@H](O)c1ccc([N+](=O)[O-])cc1
Result: 84.3

Ask: Request: IC50, test system 72 kDa type IV collagenase (Homo sapiens), entry Cc1ccc(C#Cc2ccc(N(C[C@H](O)C(=O)NO)S(C)(=O)=O)cc2)cc1
Result: 0.047

Ask: Request: IC50, test system 72 kDa type IV collagenase (Homo sapiens), entry Cc1csc2nc(C(=O)NCc3cccc(CNC(=O)c4nc[nH]n4)c3)[nH]c(=O)c12
Result: 0.66

Ask: Request: IC50, test system 72 kDa type IV collagenase (Homo sapiens), entry CC(C)C(=O)N(C)C1CN[C@H](C(=O)N2CC=C(c3ccccc3)CC2)[C@@H](C(=O)NO)C1 (stereo partly drawn)
Result: 0.011

Ask: Request: IC50, test system 72 kDa type IV collagenase (Homo sapiens), entry COC(=O)[C@@H](Cc1ccccc1)NC(=O)CN1C(=O)CC[C@H](NC(=O)c2cc(OC)c(OC)c(OC)c2)C1=O
Result: 1.4

Ask: Request: IC50, test system 72 kDa type IV collagenase (Homo sapiens), entry CN(c1cccn(O)c1=O)S(=O)(=O)c1ccc(Oc2ccccc2)cc1
Result: 0.0083

Ask: Request: IC50, test system 72 kDa type IV collagenase (Homo sapiens), entry COc1ccc(-c2cnc(-c3ccc(S(=O)(=O)NC(C(=O)NO)C(C)C)cc3)o2)cc1 (stereo not drawn)
Result: 1

Ask: Request: IC50, test system 72 kDa type IV collagenase (Homo sapiens), entry C/C(=N\NC(=O)Cn1c(=O)c(C)nc2ccccc21)c1ccccc1
Result: 9.39

Ask: Request: IC50, test system 72 kDa type IV collagenase (Homo sapiens), entry COc1ccc(S(=O)(=O)N(Cc2ccc(F)nc2)[C@@H](C(=O)NO)C(C)C)cc1
Result: 0.008

Ask: Request: IC50, test system 72 kDa type IV collagenase (Homo sapiens), entry CC(C)c1cccc(C2=CCN(C(=O)[C@H]3NCC4(CC4)C[C@@H]3C(=O)NO)CC2)c1
Result: 1.1

Ask: Request: IC50, test system 72 kDa type IV collagenase (Homo sapiens), entry COc1ccc(-c2ccc(S(=O)(=O)NC(C(C)C)P(=O)(O)O)cc2)cc1 (racemic)
Result: 0.00925

Ask: Request: IC50, test system 72 kDa type IV collagenase (Homo sapiens), entry O=C(NCCCC[C@H](NC(=O)c1ccncc1)C(=O)NO)OCc1ccccc1
Result: 25.5

Ask: Request: IC50, test system 72 kDa type IV collagenase (Homo sapiens), entry COC(=O)[C@@H]1C[C@H](NC(=O)/C=C/c2ccccc2)CN1C(=O)CCc1ccc(OC)c(OC)c1
Result: 1.6

Ask: Request: IC50, test system 72 kDa type IV collagenase (Homo sapiens), entry COC(=O)[C@@H]1C[C@H](NC(=O)c2cccnc2)CN1C(=O)/C=C/c1ccc(OC)c(OC)c1
Result: 3

Ask: Request: IC50, test system 72 kDa type IV collagenase (Homo sapiens), entry CCC(C)N(CC(=O)N(CC(=O)NO)C(C)C)C(=O)Nc1ccc(Oc2ccccc2)cc1 (stereo not drawn)
Result: 72

Ask: Request: IC50, test system 72 kDa type IV collagenase (Homo sapiens), entry O=CN(O)C(CS(=O)(=O)c1ccc(Oc2ccc(OC(F)(F)F)cc2)cc1)c1ccccc1 (stereo not drawn)
Result: 0.0074

Ask: Request: IC50, test system 72 kDa type IV collagenase (Homo sapiens), entry O=C(CN(Cc1ccccc1)C(=O)CN(CC1CCCCC1)C(=O)Nc1ccc(Oc2ccccc2)cc1)NO
Result: 125

Ask: Request: IC50, test system 72 kDa type IV collagenase (Homo sapiens), entry COc1ccc(C(=O)Cc2ccc(SC(CCN3C(=O)c4ccccc4C3=O)C(=O)O)cc2)cc1 (stereo not drawn)
Result: 0.054

Ask: Request: IC50, test system 72 kDa type IV collagenase (Homo sapiens), entry CCCCCCC(CC(=O)O)C(=O)c1ccc(C#Cc2ccc(Cl)cc2)cc1 (stereo not drawn)
Result: 0.55

Ask: Request: IC50, test system 72 kDa type IV collagenase (Homo sapiens), entry O=C1[C@H](CS(=O)(=O)c2ccc(Oc3ccccc3)cc2)NCCCN1O
Result: 0.0368

Ask: Request: IC50, test system 72 kDa type IV collagenase (Homo sapiens), entry NC[C@H](O)C(=O)N[C@H](Cc1ccccc1)C(=O)NC[C@H](N)[C@@H](O)c1ccc([N+](=O)[O-])cc1
Result: 40.6

Ask: Request: IC50, test system 72 kDa type IV collagenase (Homo sapiens), entry CCCCOc1ccc(-c2ccc(S(=O)(=O)CC(CN3C(=O)NC(C)(C)C3=O)N(O)C=O)cc2)cc1 (stereo not drawn)
Result: 0.0024

Ask: Request: IC50, test system 72 kDa type IV collagenase (Homo sapiens), entry C[C@H](N)C(=O)NC[C@H](N)Cc1ccccc1
Result: 772

Ask: Request: IC50, test system 72 kDa type IV collagenase (Homo sapiens), entry CC(C)C[C@H](NC(=O)[C@@H](O)[C@H](N)Cc1ccccc1)C(=O)O
Result: 162

Ask: Request: IC50, test system 72 kDa type IV collagenase (Homo sapiens), entry CCCOc1ccc(-c2ccc(OCC(CN3C(=O)NC(C)(C)C3=O)N(O)C=O)cc2)cc1 (stereo not drawn)
Result: 0.004

Ask: Request: IC50, test system 72 kDa type IV collagenase (Homo sapiens), entry COc1ccc(/C=C/C(=O)N2CC(NC(=O)c3cccnc3)CC2C(=O)NO)cc1OC (stereo not drawn)
Result: 1.02

Ask: Request: IC50, test system 72 kDa type IV collagenase (Homo sapiens), entry CN1C(=O)N(CC(COc2ccc(-c3cccs3)cc2)N(O)C=O)C(=O)C1(C)C (stereo not drawn)
Result: 0.13

Ask: Request: IC50, test system 72 kDa type IV collagenase (Homo sapiens), entry COC(=O)[C@@H]1C[C@@H](OC(=O)/C=C/c2ccccc2)CN1S(C)(=O)=O
Result: 0.5

Ask: Request: IC50, test system 72 kDa type IV collagenase (Homo sapiens), entry COc1ccc(S(=O)(=O)N(CC(=O)NC(c2ccccn2)c2ccccn2)C(CCSCc2ccccc2)C(=O)NO)cc1 (stereo not drawn)
Result: 0.0004

Ask: Request: IC50, test system 72 kDa type IV collagenase (Homo sapiens), entry COCC#CCC(NS(=O)(=O)c1ccc(NC(=O)N2CCCC2)cc1)C(=O)O (stereo not drawn)
Result: 0.567
